Every entry's value here was drawn from patent US20120231006A1.

- Test system: T1, human Orai1 (human, UniProt Q96D31 1-301)
- T1 construct: on AM1-CHO/hOrai1/hSTIM1-YFP, AM1/hOrai1, HEK-293 transfectants, endogenous on Jurkat and blood cells; in Westerns from cell lysates; also called hOrai1; CRACM1
- T1 sequence (Q96D31 whole entry): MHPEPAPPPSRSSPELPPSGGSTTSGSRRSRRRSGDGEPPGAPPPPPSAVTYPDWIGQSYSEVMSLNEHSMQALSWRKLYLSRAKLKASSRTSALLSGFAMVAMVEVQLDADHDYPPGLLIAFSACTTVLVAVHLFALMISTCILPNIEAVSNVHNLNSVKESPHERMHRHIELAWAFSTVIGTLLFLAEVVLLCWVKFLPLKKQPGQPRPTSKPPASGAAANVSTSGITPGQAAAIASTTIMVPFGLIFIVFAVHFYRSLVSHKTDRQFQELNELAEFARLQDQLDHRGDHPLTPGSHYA
- Experimental details: FACS Kd, AM1-CHO/hOrai1/hSTIM1-YFP cells
Endpoint label: Kd

So, mAb 5D7.2 (antibody, human IgG2, lambda, V domains shown, fully human IgG2 lambda, Campaign 2, recombinant) VH: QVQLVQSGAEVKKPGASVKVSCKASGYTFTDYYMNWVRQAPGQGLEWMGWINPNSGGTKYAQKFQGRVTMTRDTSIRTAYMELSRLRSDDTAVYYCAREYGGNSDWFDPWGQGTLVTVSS VL: QSVLTQPPSVSGAPGQRVTISCTGSSSNIGAGYDVHWYQQSPGTAPKLLIYGNSNRPSGVPDRFSGSKSGTSASLAITGLQAEDEADYYCQSYDNRLSDSVVIGGGTKLTVQG ? Its Kd was 483 pM
